read-out: Cytochrome P450 (CYP1A1), CYP1A1 (gene 1543); assay: LTEA_HepaRG_CYP1A1: Life Technologies and Expression Analysis (LTEA) Assay for Cytochrome P450 (CYP1A1) using HepaRG (AID 2283454); details: mRNA level, 48 h; actives raise or lower the signal
Active and inactive are the calls of the source. The calls were made as follows: active = hit-call score of the fitted dose curve at least 0.9, where 1 is the maximum; inactive = score below 0.9.
Tick one outcome: 1 = active, 0 = inactive

Record excerpt, results attached:
Cc1nc(N(C)C)nc(OC(=O)N(C)C)c1C : 1
CCCN(CC)CC1COC2(CCC(C(C)(C)C)CC2)O1 (configuration not stated) : 1

Outcome logged for CC1(C)C(C(=O)OC(C#N)c2cccc(Oc3ccccc3)c2)C1(C)C (configuration not stated) in this assay:
1

Outcome logged for O=c1n(Cl)c(=O)n(Cl)c(=O)n1Cl in this assay:
1

Outcome logged for CC1(C)CON(Cc2ccccc2Cl)C1=O in this assay:
1

Outcome logged for COP(=S)(OC)Oc1ccc([N+](=O)[O-])c(C)c1 in this assay:
1

Outcome logged for CCSC(=O)N1CCCCCC1 in this assay:
0

---

read-out: Cytochrome P450 2C19 (Homo sapiens) (UniProt P33261); assay: CLD_CYP2C19_48hr: CellzDirect (CLD) Gene Expression Assay for xenobiotic metabolism (CYP2C19) at 48 hours (AID 2283700);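 also: fitted upward so actives raise CYP2C19 mRNA above the 0.2% DMSO vehicle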
Sequence (P33261 whole entry, looked up): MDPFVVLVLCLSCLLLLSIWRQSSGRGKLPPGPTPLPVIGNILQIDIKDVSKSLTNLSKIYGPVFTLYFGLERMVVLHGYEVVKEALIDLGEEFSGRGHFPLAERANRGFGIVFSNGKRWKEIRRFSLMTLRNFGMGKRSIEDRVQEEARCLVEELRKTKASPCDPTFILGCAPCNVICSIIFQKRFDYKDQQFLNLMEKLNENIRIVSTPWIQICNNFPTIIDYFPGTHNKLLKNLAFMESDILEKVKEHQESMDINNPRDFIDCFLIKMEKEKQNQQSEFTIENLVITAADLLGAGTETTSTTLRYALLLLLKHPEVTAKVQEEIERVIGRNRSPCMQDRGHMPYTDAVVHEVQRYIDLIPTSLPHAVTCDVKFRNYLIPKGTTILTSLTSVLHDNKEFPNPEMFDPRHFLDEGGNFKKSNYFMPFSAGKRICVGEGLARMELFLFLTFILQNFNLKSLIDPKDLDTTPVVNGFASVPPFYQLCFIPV
Records with an inconclusive call do not appear. Calls of active or inactive are those of the source. Rule for the calls: active = hit-call score of the fitted dose curve at least 0.9, where 1 is the maximum; inconclusive = response in the unintended direction; inactive = score below 0.9.
Measurement kind: outcome

CC(C)N1C(=O)c2ccccc2NS1(=O)=O : inactive
CCCC(=NOCC)C1=C(O)CC(CC(C)SCC)CC1=O (stereo not drawn) : inactive
CC1(C)C(C=C(Cl)Cl)C1C(=O)OC(C#N)c1cccc(Oc2ccccc2)c1 (stereo not drawn) : inactive

---

assay: ATG_M_61_CIS: Attagene CIS-FACTORIAL HepG2 Assay for M61 Transcription Factor (Internal Marker) (AID 2282937); conditions: HepG2 Attagene CIS-FACTORIAL M61 internal marker reporter; actives raise or lower the signal
Active and inactive are the calls of the source. Rule for the calls: active = hit-call score of the fitted dose curve at least 0.9, where 1 is the maximum; inactive = score below 0.9.
Measurement kind: outcome

CCCN(CC)CC1COC2(CCC(C(C)(C)C)CC2)O1 (stereo unspecified) : inactive
CC(C)(C)C(=O)C(Oc1ccc(Cl)cc1)n1cncn1 (stereo unspecified) : inactive
COP(=O)(OC)O/C(C)=C/C(=O)N(C)C : inactive
CCNC(=O)NC(=O)C(C#N)=NOC : inactive
CC(C)NC(=O)N1CC(=O)N(c2cc(Cl)cc(Cl)c2)C1=O : inactive

// COP(=S)(OC)Oc1ccc([N+](=O)[O-])c(C)c1 : outcome value = inactive

---

assay: CCTE_Deisenroth_AIME_384WELL_CTox_Inactive: Cytotoxicity Assessment (CTOX) in CCTE's 384-well Estrogen Receptor Transactivation Assay without AIME metabolic competence (metabolism negative), Deisenroth Lab (AID 2284039);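 also: cell viability via live-cell protease substrate cleaved to fluorescent probe; cells exposed 24 h to medium preincubated 2 h with alginate-water beads without S9; loss of fluorescence signal means loss of viability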
Records with an inconclusive call do not appear. Active and inactive are the calls of the source. Rule for the calls: active = hit-call score of the fitted dose curve at least 0.9, where 1 is the maximum; inconclusive = response in the unintended direction; inactive = score below 0.9.
Tick one outcome: true = active, false = inactive

CS(=O)(=O)c1cc(C(F)(F)F)ccc1C(=O)c1cnoc1C1CC1 : false
COCC(C)N(C(=O)CCl)c1c(C)csc1C (stereo unspecified) : false
CC1(C)C(C=C(Cl)Cl)C1C(=O)OC(C#N)c1cccc(Oc2ccccc2)c1 (stereo unspecified) : true
COC(=O)N(C(=O)N1CO[C@@]2(C(=O)OC)Cc3cc(Cl)ccc3C2=N1)c1ccc(OC(F)(F)F)cc1 : false

Outcome logged for CC(C)N1C(=O)N(c2ccccc2)CSC1=NC(C)(C)C in this assay:
false

Outcome logged for CCOP(=S)(OCC)Oc1nc(Cl)n(C(C)C)n1 in this assay:
false

Outcome logged for CN=C=S in this assay:
false

Outcome logged for CCSC(=O)N1CCCCCC1 in this assay:
false

Outcome logged for C=C(C)CN(CC)c1c([N+](=O)[O-])cc(C(F)(F)F)cc1[N+](=O)[O-] in this assay:
false

Outcome logged for CCCC(=NOCC)C1=C(O)CC(CC(C)SCC)CC1=O (stereo unspecified) in this assay:
false

Outcome logged for CCOC(=O)C(C)OC(=O)c1cc(Oc2ccc(C(F)(F)F)cc2Cl)ccc1[N+](=O)[O-] (stereo unspecified) in this assay:
true

---

experiment: APR_HepG2_P-H2AX_24hr: Apredica 24-hour HepG2 Assay for H2AX Phosphorylation (AID 2282920); details: high-content imaging, actives raise or lower the signal
Calls of active or inactive are those of the source. The calls were made as follows: active = hit-call score of the fitted dose curve at least 0.9, where 1 is the maximum; inactive = score below 0.9.
Tick one outcome: TRUE for active, FALSE for inactive

COCc1cnc(C2=NC(C)(C(C)C)C(=O)N2)c(C(=O)O)c1 (stereo not drawn) : FALSE
CO/N=C(/C1=NOCCO1)c1ccccc1Oc1ncnc(Oc2ccccc2Cl)c1F : FALSE
Cc1ccc(N=CN(C)C=Nc2ccc(C)cc2C)c(C)c1 : TRUE
COC(=O)c1c(C(F)F)nc(C(F)(F)F)c(C2=NCCS2)c1CC(C)C : FALSE
CN=C=S : FALSE
N#CN=C1SCCN1Cc1ccc(Cl)nc1 : FALSE
Clc1nc(Cl)nc(Nc2ccccc2Cl)n1 : FALSE
COP(=O)(OC)O/C(C)=C/C(=O)N(C)C : FALSE

Outcome logged for CS(=O)(=O)c1cc(C(F)(F)F)ccc1C(=O)c1cnoc1C1CC1 in this assay:
FALSE

Outcome logged for CNC(=O)Oc1cccc2ccccc12 in this assay:
TRUE

---

target: human CYP2C9, CYP2C9 (gene 1559) (UniProt P11712); experiment: NVS_ADME_hCYP2C9: NovaScreen (NVS) CYP450-related Enzyme Activity (ADME) Assay for human CYP2C9 (AID 2283108)
Sequence (P11712 whole entry, looked up): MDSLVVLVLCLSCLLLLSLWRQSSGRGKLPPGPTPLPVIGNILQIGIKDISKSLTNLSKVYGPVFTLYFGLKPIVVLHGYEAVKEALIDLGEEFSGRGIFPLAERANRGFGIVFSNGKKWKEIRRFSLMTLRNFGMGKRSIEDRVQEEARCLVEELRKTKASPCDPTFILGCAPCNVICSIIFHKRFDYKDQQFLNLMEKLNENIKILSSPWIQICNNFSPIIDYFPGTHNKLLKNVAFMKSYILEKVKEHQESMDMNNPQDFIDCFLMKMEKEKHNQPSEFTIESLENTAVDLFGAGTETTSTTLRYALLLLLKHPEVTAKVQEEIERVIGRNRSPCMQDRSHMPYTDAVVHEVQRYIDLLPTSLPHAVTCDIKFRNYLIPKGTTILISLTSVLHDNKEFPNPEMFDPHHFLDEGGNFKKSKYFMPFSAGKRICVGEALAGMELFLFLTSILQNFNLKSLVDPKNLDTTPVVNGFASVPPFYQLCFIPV
Records with an inconclusive call do not appear. Active and inactive are the calls of the source. Rule for the calls: active = hit-call score of the fitted dose curve at least 0.9, where 1 is the maximum; inconclusive = response in the unintended direction; inactive = score below 0.9.
Tick one outcome: Yes for active, No for inactive

Record excerpt, results attached:
CC1(C)CCC(=Cc2ccc(Cl)cc2)C1(O)Cn1cncn1 (centres undefined) : Yes
CC1(C)C(C(=O)OC(C#N)c2cccc(Oc3ccccc3)c2)C1(C)C (centres undefined) : No
CCCCC(C#N)(Cn1cncn1)c1ccc(Cl)cc1 (centres undefined) : Yes
CC1(C)C(C=C(Cl)Cl)C1C(=O)OC(C#N)c1cccc(Oc2ccccc2)c1 (centres undefined) : Yes
O=C1C2CC=CCC2C(=O)N1SC(Cl)(Cl)Cl (centres undefined) : Yes

Outcome logged for COP(=S)(OC)SCn1nnc2ccccc2c1=O in this assay:
Yes

---

target: Peroxisome proliferator-activated receptor gamma (Homo sapiens); assay: ATG_PPARg_TRANS: Attagene TRANS-FACTORIAL HepG2 Assay for human Peroxisome Proliferator-activated Receptor-gamma (PPARg) (AID 2283007)
Inconclusive results are not listed. Calls of active or inactive are those of the source. Rule for the calls: active = hit-call score of the fitted dose curve at least 0.9, where 1 is the maximum; inconclusive = response in the unintended direction; inactive = score below 0.9.
Tick one outcome: t for active, f for inactive

Record excerpt, results attached:
CC(C)Oc1cccc(NC(=O)c2ccccc2C(F)(F)F)c1 : t
CC1(C)CON(Cc2ccccc2Cl)C1=O : f
CC(C)C1(C)N=C(c2ncccc2C(=O)O)NC1=O (stereo not given) : f
COc1cc(Cl)c(OC)cc1Cl : f
CC(C)=CC1C(C(=O)OCc2coc(Cc3ccccc3)c2)C1(C)C (stereo not given) : t

Outcome logged for O=C1C2CC=CCC2C(=O)N1SC(Cl)(Cl)Cl (stereo not given) in this assay:
f

Outcome logged for N#CN=C1SCCN1Cc1ccc(Cl)nc1 in this assay:
f

Outcome logged for CCNP(=S)(OC)O/C(C)=C/C(=O)OC(C)C (stereo not given) in this assay:
t

Outcome logged for CCOP(=S)(OCC)Oc1nc(Cl)n(C(C)C)n1 in this assay:
f

Outcome logged for CC1(C)CCC(=Cc2ccc(Cl)cc2)C1(O)Cn1cncn1 (stereo not given) in this assay:
f

Outcome logged for CS(=O)(=O)c1cc(C(F)(F)F)ccc1C(=O)c1cnoc1C1CC1 in this assay:
t

Outcome logged for OC(c1ccc(Cl)cc1)(c1ccc(Cl)cc1)C(Cl)(Cl)Cl in this assay:
f

Outcome logged for COc1cc(OC)nc(NC(=O)NS(=O)(=O)c2ncccc2OCC(F)(F)F)n1 in this assay:
f

Outcome logged for COCC(C)N(C(=O)CCl)c1c(C)csc1C (stereo not given) in this assay:
t

Outcome logged for CNC(=O)N(C)c1nnc(C(C)(C)C)s1 in this assay:
f

---

test system: guinea pig Histamine Receptor (H2), gene 100729734; experiment: NVS_GPCR_gH2: NovaScreen (NVS) G Protein-Coupled Receptor Assay for guinea pig Histamine Receptor (H2) (AID 2283342)
Records with an inconclusive call do not appear. Active and inactive are the calls of the source. Rule for the calls: active = hit-call score of the fitted dose curve at least 0.9, where 1 is the maximum; inconclusive = response in the unintended direction; inactive = score below 0.9.
Tick one outcome: active, inactive

CCNP(=S)(OC)O/C(C)=C/C(=O)OC(C)C (stereo not given) : active
CCCCC(C#N)(Cn1cncn1)c1ccc(Cl)cc1 (stereo not given) : active
CSC(=O)c1c(C(F)F)nc(C(F)(F)F)c(C(=O)SC)c1CC(C)C : inactive
Cn1c(-c2ccccc2)cc(-c2ccccc2)[n+]1C : inactive

Now consider a different molecule.
Outcome logged for CC(C)(C)C(=O)C(Oc1ccc(Cl)cc1)n1cncn1 (stereo not given) in this assay:
inactive
